- PROTOCOL: yeast display, Sf9 membrane polyspecificity reagent, FACS + sequencing; frameworks hold sequencing errors
ENDPOINT_NAME: polyreactivity (PSR sort gate)

Answered cases to consult:
chain=QVQLVESGGGLVQAGGSLRLSCAASGRILAWYAMGWYRQAPGKEREFVAGITGSVGSTYYADSVKGRFTISRDKAKNTVYLQMNSLKPEDPAVYYCNKDWDRTSGPKHYYWGQGTQVTVSS endpoint_name="polyreactivity (PSR sort gate)" data_value="low polyreactivity"
chain=QVQLVESGGGLVQAGGSLRLSCAASGFTFYDYAMGLYRQAPGKERELVAGISRDGGTTYYSDSVKGRFTISRDNAKNTVYLQMNSLKPEDTAVYYCAVDFLDWYQDYYITYDYWGQGSQVTVSS endpoint_name="polyreactivity (PSR sort gate)" data_value="low polyreactivity"
chain=QVQLLESGGGLVQAGGSLRLSCAASGITFQLYAMGWYRQAPGKEREFVAAINGRSGRTYYADSVKGRFTISRDNAKNTVYLHMNSLKPEDTAVYYCAKTSNGYGSGLPMYYWGQGTQVTVSS endpoint_name="polyreactivity (PSR sort gate)" data_value="high polyreactivity"
chain=QVQLVESGGGLVQAGGSLRLICAASGGIFWYNAMGWYRPAPGKERELVADISSSGITYYADSVKGRFTISRDNAKNTVYLQMNSLKPEDTAVYYCAADSTTRPGLRVYDDYDYWGQGTQLTVSS endpoint_name="polyreactivity (PSR sort gate)" data_value="low polyreactivity"

Would you kindly share the measured polyreactivity (PSR sort gate) for QVQLVESGGGLVQAGGSLRLSCAASGITFWSYAMGWYRQAPGKERELVAAISRGGDSTYYADSVKGRFTISRDNAKNTVYLQMNSLKPEDTAVYYCAALRKREEYYWGQGTQVTVSS ?
high polyreactivity

###

- PROTOCOL: yeast display, Sf9 membrane polyspecificity reagent, FACS + sequencing; frameworks hold sequencing errors
ENDPOINT_NAME: polyreactivity (PSR sort gate)

chain=QVQLVESGGGLVQAGGSLRLSCAASGRIFEVYAMGWYRQAPGKERELVARISDGGGSTYYADSVKGRFTISRDNAKNTVYLQMNSLKPEDTAVYYCAAGGDLRLDRRFAFVSRGDYWGQGTQVTVSS endpoint_name="polyreactivity (PSR sort gate)" data_value="low polyreactivity"
chain=QVQLVESGGGLVQAGGSLRLICAASGRIFDSYTMGWYRQAPGKERELVAAISRGGGSTYYADSVKGRFTISRDNAKNTVYLQMNSLKPEDTAVFYCAASSYLNSRFKFDYWGQGTQVTVSS endpoint_name="polyreactivity (PSR sort gate)" data_value="low polyreactivity"

###

- PROTOCOL: yeast display, Sf9 membrane polyspecificity reagent, FACS + sequencing; frameworks hold sequencing errors
ENDPOINT_NAME: polyreactivity (PSR sort gate)

Please review the entries below; each comes with its answer.
chain=QVQLVESGGGLVQAGGSLRLSWAASGITFRKNAMGWYRQAPGKERQLVATITRRGGSTFYADSVKGRFTISRDNANNTVYLQFKSLKPVDSAVYYFAADYATRDGDYESWGQGTQVTVSS data_value="high polyreactivity"
chain=QVQLVESGGGLVHAGGSLRVSCAASGFTFYLYTMGWYRQAPGTERELVAAINYSGGRTYYADSVKGRFTISRDYAKNSVYLQMNSLKPEDTAVYYCYPRVKNLQAYDYWGQGTQVTVSS data_value="high polyreactivity"
chain=QVQLVESGGGLIQAGGSLRLSCAASGSTFGTYTRGWYRQAPGKERELVAAIRSGGITYYADSVKGRFTISRDNAKNTVYLQMNSLKPEDTAVYYCAKQYTGEPAMEYWGQGTQVTVSS data_value="low polyreactivity"
chain=QVQLVESGGGLVQAGGSLRLSCAASGRTFALYTMGWYRQAPGKERELVAAINWSGTSTYYADSVKGRFTISRDTAKNTVYLQMNSLKPEDTAVYYCNARGQYNRLMDYWGQGTKVTVSS data_value="low polyreactivity"
chain=QVQLVESGGGLVQAGGSLRLSCAASGRTFRWYAMGWDRQAPGKERELVAAISQSGGSTYYADSVKGRFTISRDNAKNTVYLQMNSLKPEDTAVYYCNAYPPYGGYAYGRGDYWGQGTQVTVSS data_value="high polyreactivity"

Give the measured polyreactivity (PSR sort gate) of QVQLVESGGGLVQAGGSLRLSCAASGTFAGNALGWYRQAPGKERELVASITTGVRTYYADSGKGRFTLSRDNAKNTVYLQMHCLKPEDTAVYYCAADRIRDLEFYYWGQGTQVTVSS .
low polyreactivity

Now the sequence QVQLVESGGGLVQAGGSLRLSCAASGSIFSYYAMGWYRQAPAKERELVAAISQNACSTYYADSVKGRFTISRDNAKNTVYLQMNSLKPEDTAVYYCNAYSVYVRGEYWGQGTQVNVSS
high polyreactivity

Then this sequence: QVQLVESGGGLVQAGGSLRLSCASSGITLRYYAMGWYRQAPGKERELVAAISSGGRTKYADSVKGRFTISRDNAKNTVYLQMNSLKPENTAVSYCGARKPYVTHTIDVLQAHDYWGQGTQVTVSS
high polyreactivity

###

- PROTOCOL: yeast display, Sf9 membrane polyspecificity reagent, FACS + sequencing; frameworks hold sequencing errors
ENDPOINT_NAME: polyreactivity (PSR sort gate)

chain=QVQLVESGGGLVQAGGSLRLSCAASGRTFGYYAMGWYRQAAGKDREFVAAITAGRGSTYYPDSVKGRFTISRDNAKNTVYLQMNSLKPEETAVYYCNAVPPGRTPVKGNFYYWGQGTQVTVSS endpoint_name="polyreactivity (PSR sort gate)" data_value="high polyreactivity"
chain=QDQLVESGGGLVQAGGSLRLSCAASGTIFDVYAMGWYIQAPGKERELVAAISYGGGSTYYADSVKGRFTISRDNAKNTVYLQINSLKPEDTAVYYCAADDDVYGLEYGYWGQGTQVTVSS endpoint_name="polyreactivity (PSR sort gate)" data_value="low polyreactivity"
chain=QVQLVESGGGLVQAGGSLRLSCAASGSIFYAYAMGWSRQAPGKERELVATISSVGSTYYADSVKGRFTISRDNAKNTVYLQMNSLKPEDTAVYYCAKPRIVVYKTGYDYWGQGTQVTVSS endpoint_name="polyreactivity (PSR sort gate)" data_value="low polyreactivity"
chain=QDQLVESGGGLVQAGGSLRLTCAASGSIFRYYVMGWYRQAPGKERELVAGISSSGGRTYYADSVKGRFTISRDNANNTVYLQMNSLKPEDTAVYYCNAVTSRRPYDYWGHGTQVTVSS endpoint_name="polyreactivity (PSR sort gate)" data_value="high polyreactivity"
chain=QVQLVESGGGLVQAGGSLRLSCAASGFTFDRNAMGWYRQAPGKERGLVAAISSSGGRTYYADSVKGRFTISRDNAKNTVYLQMNSLKPEDTAVYYCAATSSYSYDYWGQGTQVTVSS endpoint_name="polyreactivity (PSR sort gate)" data_value="high polyreactivity"

Record request: polyreactivity (PSR sort gate) value, item QVQLVESGGGLVQAGGSLRLSCAASGFIFWSYAMGWYRQAPGKERELVAAITRRGGSTYYADSVKGRFTISRDNAKNTVYLQMNSLKPEDTAVYYCNARRTYNGPVYPYYSGVNYWGQGTQVTVSS
high polyreactivity

Now consider QVQLVESGGGLVQAGGSLRLSCAASGRTFLDNAMGWYRQAPGKERELVAAISYSGGSTYYADSVKGRFTISRDNAKNTVYLQMNSLKPEDTAVYYCAADPRQYDYYLLAYDYWGQGTQVTVSS and answer again.
low polyreactivity

###

- PROTOCOL: yeast display, Sf9 membrane polyspecificity reagent, FACS + sequencing; frameworks hold sequencing errors
ENDPOINT_NAME: polyreactivity (PSR sort gate)

chain=QVQLVESGGGLVQAGGSLRLSCAASGRISESNDMGWYRQAPGKERELVAAISSSGGSTYYADSVKGRFTISRDNAKNTVYLQMNSLKPVDTAVYYCNAVYYRTVLKIGVYEYDYWGQGTQVTVSS endpoint_name="polyreactivity (PSR sort gate)" data_value="low polyreactivity"
chain=QVQLVESGGGLVQAGGSLRLSCPASGRIFVLGWYRQAPGKERELVAAINDSGDITYYADSVKGRFSISRDNAKYTVYLQMNSLKPEDTAVYYCAASAAYYGFYKSVTYDYWGQGSQVTVSS endpoint_name="polyreactivity (PSR sort gate)" data_value="low polyreactivity"
chain=QVQLVESGGGLVQAGGSLRLSCAASGRTFRYYTMGWYRQAPGKEREFVAAISSTGGTYYADSVKGRFTISRDNAKNTVYLQMNRLKPEDSAVYYCAATFIQVVVNVQLYDYDYWGQGTQVTVSS endpoint_name="polyreactivity (PSR sort gate)" data_value="low polyreactivity"
chain=QVQLVESGGGLVQAGGSLRLSCAASGRTFYANTMGWYRQAPGKERELVAAITVRGGTTFYADSVKGRFTISRDNAKNTVYLQMNSLKPEDTAVYYCAAYGYRYSHEYYYWGQGTQVTVSS endpoint_name="polyreactivity (PSR sort gate)" data_value="high polyreactivity"

Which measured polyreactivity (PSR sort gate) value corresponds to QVQLVESGGGLVQAGGSLRLSCAASGSIFKANTMGWSRQAPGKERELVAAISGSGGRTRYADSVRGRFTISRDNAKNTVYLQMNSLKPDVTAVYYCAATDRGGYYYWGQGTQVTVSS ?
high polyreactivity
